Measured Control current by item
Biological target: Calcium-activated potassium channel subunit alpha-1 (Homo sapiens) (UniProt Q12791)
Sequence (Q12791 whole entry): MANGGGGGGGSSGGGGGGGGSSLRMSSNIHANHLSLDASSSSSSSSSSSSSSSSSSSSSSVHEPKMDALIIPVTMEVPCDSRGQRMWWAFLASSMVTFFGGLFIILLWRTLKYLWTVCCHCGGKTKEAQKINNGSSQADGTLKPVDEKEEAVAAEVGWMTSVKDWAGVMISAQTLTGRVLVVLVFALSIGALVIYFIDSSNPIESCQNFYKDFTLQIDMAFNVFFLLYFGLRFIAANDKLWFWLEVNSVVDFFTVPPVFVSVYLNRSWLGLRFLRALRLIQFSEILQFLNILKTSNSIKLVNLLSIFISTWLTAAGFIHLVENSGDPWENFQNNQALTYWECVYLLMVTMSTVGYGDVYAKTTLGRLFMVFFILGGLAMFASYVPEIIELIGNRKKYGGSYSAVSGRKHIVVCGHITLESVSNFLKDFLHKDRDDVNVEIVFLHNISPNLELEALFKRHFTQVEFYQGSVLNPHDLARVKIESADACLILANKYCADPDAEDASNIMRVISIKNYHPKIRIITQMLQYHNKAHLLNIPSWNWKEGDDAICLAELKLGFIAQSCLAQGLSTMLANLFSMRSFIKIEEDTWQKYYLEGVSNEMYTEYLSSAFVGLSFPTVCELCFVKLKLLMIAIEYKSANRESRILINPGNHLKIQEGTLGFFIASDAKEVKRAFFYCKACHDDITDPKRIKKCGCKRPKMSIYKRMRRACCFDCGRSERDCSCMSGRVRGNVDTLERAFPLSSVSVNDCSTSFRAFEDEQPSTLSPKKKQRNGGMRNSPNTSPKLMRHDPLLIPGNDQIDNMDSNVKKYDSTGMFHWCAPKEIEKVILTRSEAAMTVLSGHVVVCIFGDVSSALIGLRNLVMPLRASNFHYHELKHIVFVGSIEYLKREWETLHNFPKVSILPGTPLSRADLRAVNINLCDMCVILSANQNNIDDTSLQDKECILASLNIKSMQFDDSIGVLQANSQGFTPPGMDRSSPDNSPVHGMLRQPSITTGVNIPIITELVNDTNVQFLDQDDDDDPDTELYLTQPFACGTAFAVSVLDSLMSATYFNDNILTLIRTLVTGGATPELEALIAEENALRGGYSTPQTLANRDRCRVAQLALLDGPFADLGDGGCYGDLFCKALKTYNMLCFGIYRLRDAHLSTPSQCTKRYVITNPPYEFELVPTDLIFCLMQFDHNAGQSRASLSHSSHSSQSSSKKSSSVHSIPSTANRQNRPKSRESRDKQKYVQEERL
Test: Maxi-K opening activity on cloned human (hSlo) large- conductance (BK) Ca(2+)-activated K+ channel expressed in Xenopus laevis oocytes at concentration of 20 uM
Format: functional, cell-based
Details: Oocyte
endpointName: Control current (%)

smiles	endpointName	val
O=C(Nc1cccc(C(F)(F)F)c1)Nc1cc(Cl)ccc1O	Control current	124
Oc1c(Br)cc(Br)cc1-c1cc(Br)cc(Br)c1O	Control current	264
Oc1c(Cl)cc(Cl)cc1Sc1cc(Cl)cc(Cl)c1O	Control current	199

* * *

Assay: pKa value was determined
Format: physicochemical
Measured pKa by item
endpointName: pKa

molecule	endpointName	val
CN(C)Cc1cc(Cl)cc(Cc2cc(Cl)cc(CN(C)C)c2O)c1O	pKa	9.6
Oc1c(Cl)cccc1Cc1cccc(Cl)c1O	pKa	8.2
O=C(Nc1cc(Cl)cc(Cl)c1O)Nc1cc(Cl)cc(Cl)c1O	pKa	7.4
Oc1c(Cl)cc(Cl)cc1Sc1cc(Cl)cc(Cl)c1O [BITHIONOL]	pKa	6.3
CCCc1ccc(O)c(-c2cc(CCC)ccc2O)c1	pKa	9.3
Oc1c(Cl)cc(Cl)cc1Cc1cc(Cl)cc(Cl)c1O	pKa	7.7
O=C(Nc1cc(Cl)ccc1O)Nc1cc(Cl)ccc1O	pKa	8.9
Oc1ccc(Br)cc1-c1cc(Br)ccc1O	pKa	8.6
Oc1ccc(F)cc1Cc1cc(F)ccc1O	pKa	9.7
Oc1c(Br)cc(Br)cc1-c1cc(Br)cc(Br)c1O [BROMOPHENE]	pKa	6.7
O=c1[nH]c2cc(C(F)(F)F)ccc2n1-c1cc(Cl)ccc1O	pKa	9.6
Oc1ccc(F)cc1Sc1cc(F)ccc1O	pKa	8.4
O=C(Nc1cccc(C(F)(F)F)c1)Nc1cc(Cl)ccc1O	pKa	9.3
Oc1ccc(Cl)cc1Cc1cc(Cl)ccc1O [DICHLOROPHEN]	pKa	9.3
Oc1c(Cl)cc(Cl)c(Cl)c1Cc1c(O)c(Cl)cc(Cl)c1Cl [HEXACHLOROPHENE]	pKa	6.6
